Target: HIV-1 pNL4-3 integrase (Human immunodeficiency virus type 1 group M subtype B (isolate NY5) (HIV-1))
Test: Determination of enzyme (HIV integrase) inhibitory activity
Conditions: calculated from inhibition rate (fluorescence)
measure_name: pIC50
As a rule, pIC50 stands for the negative log10 of the concentration, concentration in M.

Here's what some known entries look like.
| compound | obs_value |
| --- | --- |
| COC1CN(C(=O)[C@@]2(C)CN([C@@H](C)C3CC3)C(=O)c3c(O)c(=O)c(-c4ncc(Cc5ccc(F)cc5)s4)cn32)C1 | 7.92 |
| COCCOCC1(C)CN(C(C)C)C(=O)c2c(O)c(=O)c(-c3ncc(Cc4ccc(F)cc4)s3)cn21 (stereo not shown) | 7.64 |
| CC(=O)CC1CN(C(C)C)C(=O)c2c(O)c(=O)c(-c3ncc(Cc4ccc(F)cc4F)s3)cn21 (stereo not shown) | 8.27 |

[ask] I would be grateful if you could share the reported pIC50 for CC(C)CNC(=O)[C@@]1(C)CN(C(C)C)C(=O)c2c(O)c(=O)c(-c3nnc(Cc4ccc(F)cc4)s3)cn21 .
[reply] 7.74

* * *

Molecular target: HIV-1 pNL4-3 integrase (Human immunodeficiency virus type 1 group M subtype B (isolate NY5) (HIV-1), UniProt P12497)
Experiment: Determination of enzyme (HIV integrase) inhibitory activity
Details: calculated from inhibition rate (fluorescence)
# Lookup of reported pIC50 keyed by entry
pIC50 here: minus log base 10 of the concentration, concentration in moles per litre.

| compound | pIC50 |
| --- | --- |
| COC[C@@H]1[C@H](C)n2cc(-c3nnc(Cc4ccc(F)cc4)s3)c(=O)c(O)c2C(=O)N1C(C)C [Example 232] | 7.82 |
| CC(C)N1CC(C)(CO)n2cc(-c3ncc(Cc4ccc(F)cc4)s3)c(=O)c(O)c2C1=O (stereo not shown) [Example 111] | 7.70 |
| CCN1C[C@](C)(C(=O)N(C)C)n2cc(-c3nnc(Cc4ccc(F)cc4)s3)c(=O)c(O)c2C1=O [Example 199] | 8.08 |

[ask] Sample CC[C@@H]1Cn2cc(-c3nnc(Cc4ccc(F)cc4)s3)c(=O)c(O)c2C(=O)N1C(C)C [Example 278] — what was its pIC50?
[reply] 8.00

[ask] Reported pIC50 for COCCN(C)C(=O)[C@]1(C)CN(C(C)C)C(=O)c2c(O)c(=O)c(-c3ncc(Cc4ccc(F)cc4)s3)cn21 [Example 235] : what is it?
[reply] 7.80

[ask] Entry COCCOC[C@@H]1Cn2cc(-c3nnc(Cc4ccc(F)cc4F)s3)c(=O)c(O)c2C(=O)N1CC(C)(C)C [Example 129] : reported pIC50 = ?
[reply] 7.92

[ask] Field request: pIC50 | item: CC(C)[C@@H]1Cn2cc(-c3nnc(Cc4ccc(F)cc4)s3)c(=O)c(O)c2C(=O)N1C(C)C [Example 221]
[reply] 8.08

* * *

Target: HIV-1 pNL4-3 integrase (Human immunodeficiency virus type 1 group M subtype B (isolate NY5) (HIV-1), UniProt P12497)
Experiment: Determination of enzyme (HIV integrase) inhibitory activity
Assay type: biochemical
Conditions: calculated from inhibition rate (fluorescence)
measure_name: pIC50
// returns pIC50 (minus log10 of molar concentration), number only

Below: 2 compounds and their reported pIC50.
| compound | pIC50 |
| --- | --- |
| CN(C)C(=O)[C@]1(C)CN(C)C(=O)c2c(O)c(=O)c(-c3ncc(Cc4ccc(F)cc4)s3)cn21 | 8.07 |
| CC(C)NC(=O)C1(C)CN(C(C)C)C(=O)c2c(O)c(=O)c(-c3ncc(Cc4ccc(F)cc4)s3)cn21 (stereo not shown) | 7.70 |

[ask] Consider the compound COC[C@@H]1[C@H](C)n2cc(-c3nnc(Cc4ccc(F)cc4)s3)c(=O)c(O)c2C(=O)N1CC1CC1 and give its measured pIC50.
[reply] 8.04

[ask] Entry CCN1C(=O)c2c(O)c(=O)c(-c3nnc(Cc4ccc(F)cc4)s3)cn2CC1(COC)COC : reported pIC50 = ?
[reply] 8.10

* * *

Target: HIV-1 pNL4-3 integrase (Human immunodeficiency virus type 1 group M subtype B (isolate NY5) (HIV-1), UniProt P12497)
Assay: Determination of enzyme (HIV integrase) inhibitory activity
Details: calculated from inhibition rate (fluorescence)
Source text: The following explains evaluation methods of the HIV integrase inhibitory activity of the compound of the present invention. A full-length gene sequence (Accession No.: M19921) of HIV-1 pNL4-3 integrase was inserted into restriction enzyme Nde I and Xho I sites of plasmid pET21a(+) (manufactured by Novagen) to construct an integrase expression vector pET21a-IN-Wild type. […]
Each entry below carries its recorded pIC50.
Notebook: values listed as pIC50 are -log10 of the concentration (mol/L).

| molecule | obs_value |
| --- | --- |
| CCN1C(=O)c2c(O)c(=O)c(-c3nnc(Cc4ccc(F)cc4F)s3)cn2CC1(COC)COC | 8.24 |
| CCN(C)C(=O)[C@]1(COCCOC)CN(C(C)C)C(=O)c2c(O)c(=O)c(-c3nnc(Cc4ccc(F)cc4)s3)cn21 | 7.72 |
| CCC(=O)N(C)CC1(C)CN(C(C)C)C(=O)c2c(O)c(=O)c(-c3ncc(Cc4ccc(F)cc4F)s3)cn21 (stereo not drawn) | 7.89 |
| CCN1C(=O)c2c(O)c(=O)c(-c3nnc(Cc4ccc(F)cc4)s3)cn2C[C@H]1C(C)C | 8.11 |

[ask] Look up pIC50: CCN1C(=O)c2c(O)c(=O)c(-c3nnc(Cc4ccc(F)cc4)s3)cn2[C@@H](COC)[C@H]1C
[reply] 8.03

[ask] Entry CCCN1C[C@H](COCC)n2cc(-c3nnc(Cc4ccc(F)cc4)s3)c(=O)c(O)c2C1=O : reported pIC50 = ?
[reply] 8.14

[ask] What value of pIC50 has been reported for the following molecule? CC(C)N1C[C@](C)(CN(C)S(C)(=O)=O)n2cc(-c3nnc(Cc4ccc(F)cc4F)s3)c(=O)c(O)c2C1=O
[reply] 7.64

[ask] Please give the measured pIC50 for this molecule: CCN(C)C(=O)C1(C)CN(C)C(=O)c2c(O)c(=O)c(-c3ncc(Cc4ccc(F)cc4F)s3)cn21 (stereo not drawn)
[reply] 8.11

[ask] Query: pIC50; subject: COCC1Cn2cc(-c3ncc(Cc4ccc(F)cc4F)s3)c(=O)c(O)c2C(=O)N1C(C)C (stereo not drawn)
[reply] 8.18

* * *

Target: HIV-1 pNL4-3 integrase (Human immunodeficiency virus type 1 group M subtype B (isolate NY5) (HIV-1), UniProt P12497)
Assay: Determination of enzyme (HIV integrase) inhibitory activity
Conditions: calculated from inhibition rate (fluorescence)
pIC50: −log10 of the molar value.
Decision: pIC50 compared against 8; not below it gives true (1), below it gives false (0).

Example cases with answers are listed next.
| compound | assigned_category |
| --- | --- |
| CCN1C[C@](C)(COCCOC)n2cc(-c3nnc(Cc4ccc(F)cc4)s3)c(=O)c(O)c2C1=O [Example 296] | false (0) |
| CC(C)N1C(=O)c2c(O)c(=O)c(-c3nnc(Cc4ccc(F)cc4F)s3)cn2CC1CC#N (centres unmarked) [Example 82] | true (1) |

[ask] Could you verify whether the entry CC(C)N1C[C@@](C)(C(=O)N2CCCC2)n2cc(-c3ncc(Cc4ccc(F)cc4)s3)c(=O)c(O)c2C1=O [Example 225] shows pIC50 of no less than 8?
[reply] false (0)

* * *

Biological target: HIV-1 pNL4-3 integrase (Human immunodeficiency virus type 1 group M subtype B (isolate NY5) (HIV-1), UniProt P12497)
Assay: Determination of enzyme (HIV integrase) inhibitory activity
Settings: calculated from inhibition rate (fluorescence)
IC50 listing for selected compounds.
// note: answer is a bare numeric in nM

Here is how some compounds turned out for IC50.
| compound | unit_spec | IC50 |
| --- | --- | --- |
| CC(C)N1CC(CC(=O)N2CCCCC2)n2cc(-c3ncc(Cc4ccc(F)cc4F)s3)c(=O)c(O)c2C1=O (stereo not shown) [Example 41] | nM | 7.2 |
| CCNC(=O)C1(C)CN(C)C(=O)c2c(O)c(=O)c(-c3ncc(Cc4ccc(F)cc4F)s3)cn21 (stereo not shown) [Example 153] | nM | 5.8 |
| COC[C@@H]1Cn2cc(-c3nnc(Cc4ccc(F)cc4F)s3)c(=O)c(O)c2C(=O)N1C1CCC1 [Example 93] | nM | 7.8 |

Then this compound:
[ask] Query (compound): CO[C@H](C)[C@H]1CN(C(C)C)C(=O)c2c(O)c(=O)c(-c3ncc(Cc4ccc(F)cc4)s3)cn21 [Example 386] ; field requested: IC50
[reply] 15

* * *

Catalogue of pIC50 values
Biological target: HIV-1 pNL4-3 integrase (Human immunodeficiency virus type 1 group M subtype B (isolate NY5) (HIV-1), UniProt P12497)
Assay: Determination of enzyme (HIV integrase) inhibitory activity
Conditions: calculated from inhibition rate (fluorescence)
Remember, pIC50 is on a log scale: it is -log10 of the molar concentration.

Example entries and their recorded answers appear below.
| molecule | pIC50 |
| --- | --- |
| COCC1Cn2cc(-c3nnc(Cc4ccc(F)cc4F)s3)c(=O)c(O)c2C(=O)N1C(C)C (centres unmarked) [Example 42] | 8.47 |
| COCCOC[C@H]1CN(C2CCC2)C(=O)c2c(O)c(=O)c(-c3nnc(Cc4ccc(F)cc4F)s3)cn21 [Example 86] | 8.02 |
| CC(C)N1CC(CS(C)(=O)=O)n2cc(-c3ncc(Cc4ccc(F)cc4F)s3)c(=O)c(O)c2C1=O (centres unmarked) [Example 101] | 8.19 |

[ask] Sample COC[C@H]1Cn2cc(-c3nnc(Cc4ccc(F)cc4F)s3)c(=O)c(O)c2C(=O)N1C1CCC1 [Example 98] — what was its pIC50?
[reply] 8.12

[ask] Can you share its pIC50? I mean this molecule: COC1CN(C(=O)[C@@]2(C)CN(CC3CC3)C(=O)c3c(O)c(=O)c(-c4ncc(Cc5ccc(F)cc5)s4)cn32)C1 [Example 262]
[reply] 8.00

[ask] Which pIC50 value belongs to CCNC(=O)C1(C)CN(C(C)C)C(=O)c2c(O)c(=O)c(-c3ncc(Cc4ccc(F)cc4F)s3)cn21 (centres unmarked) [Example 27] ?
[reply] 8.00

[ask] What does the data say about its pIC50? Entry: COC[C@H]1CN(C(C)C)C(=O)c2c(O)c(=O)c(-c3nnc(Cc4ccc(Cl)cc4F)s3)cn21 [Example 229]
[reply] 7.92

[ask] What value of measured pIC50 is listed for CCN1C(=O)c2c(O)c(=O)c(-c3ncc(Cc4ccc(F)cc4)s3)cn2[C@@H](C)[C@H]1COC [Example 260] ?
[reply] 7.92

[ask] Suppose we examine the molecule COC[C@H]1[C@@H](C)N(C(C)C)C(=O)c2c(O)c(=O)c(-c3nnc(Cc4ccc(F)cc4)s3)cn21 [Example 256] ; what pIC50 value has been reported?
[reply] 8.09

[ask] Bench note: what pIC50 did CCN(C)C(=O)[C@]1(C)CN(C)C(=O)c2c(O)c(=O)c(-c3ncc(Cc4ccc(F)cc4)s3)cn21 [Example 265] show?
[reply] 8.03

[ask] Query (molecule): COC[C@H]1CN(CC2CC2)C(=O)c2c(O)c(=O)c(-c3nnc(Cc4ccc(F)cc4)s3)cn21 [Example 116] ; field requested: pIC50
[reply] 8.02
